Test system: Aspergillus fumigatus
Assay: Antifungal activity against Aspergillus fumigatus after 72 hrs by micro broth dilution method
Assay type: functional
reported endpoint: MIC (µg/mL)

>  <compound>
O=C1C(Sc2ccccc2)=C(Sc2ccccc2)C(=O)c2ccccc21

>  <unit annotation>
µg/mL

>  <value prefix>
>

>  <test result>
50

$$$$
>  <compound>
Clc1ccc(COC(Cn2ccnc2)c2ccc(Cl)cc2Cl)c(Cl)c1 (configuration not stated)

>  <unit annotation>
µg/mL

>  <value prefix>
=

>  <test result>
12.5

$$$$
>  <compound>
O=c1c2[nH]c3ccc4ccccc4c3sc=2c(=O)c2ccccc12

>  <unit annotation>
µg/mL

>  <value prefix>
>

>  <test result>
50

$$$$
>  <compound>
O=c1c2[nH]c3ccccc3sc=2c(=O)c2ccccc12

>  <unit annotation>
µg/mL

>  <value prefix>
>

>  <test result>
50

$$$$
>  <compound>
O=C1C(Sc2cccc3ccccc23)=C(Sc2cccc3ccccc23)C(=O)c2ccccc21

>  <unit annotation>
µg/mL

>  <value prefix>
>

>  <test result>
50

$$$$
>  <compound>
O=C1C(Cl)=C(Cl)C(=O)c2ccccc21

>  <unit annotation>
µg/mL

>  <value prefix>
=

>  <test result>
1.56

$$$$
>  <compound>
O=C1C(Cl)=C(Sc2cccc3ccccc23)C(=O)c2ccccc21

>  <unit annotation>
µg/mL

>  <value prefix>
=

>  <test result>
50

$$$$
>  <compound>
COc1cccc(SC2=C(Cl)C(=O)c3ccccc3C2=O)c1

>  <unit annotation>
µg/mL

>  <value prefix>
=

>  <test result>
25

$$$$
>  <compound>
COc1ccc2[nH]c3c(=O)c4ccccc4c(=O)c=3sc2c1

>  <unit annotation>
µg/mL

>  <value prefix>
>

>  <test result>
50

$$$$
>  <compound>
OC(Cn1cncn1)(Cn1cncn1)c1ccc(F)cc1F

>  <unit annotation>
µg/mL

>  <value prefix>
=

>  <test result>
2

$$$$
>  <compound>
COc1cccc(SC2=C(Sc3cccc(OC)c3)C(=O)c3ccccc3C2=O)c1

>  <unit annotation>
µg/mL

>  <value prefix>
>

>  <test result>
50

$$$$
>  <compound>
O=C1C(Cl)=C(Sc2ccccc2)C(=O)c2ccccc21

>  <unit annotation>
µg/mL

>  <value prefix>
=

>  <test result>
12.5

$$$$

* * *

# Lookup of reported MIC keyed by entry
Tested on: Cryptococcus neoformans
Assay: Antifungal activity against Cryptococcus neoformans after 72 hrs by micro broth dilution method
Format: functional
reported endpoint: MIC (µg/mL)

>  <compound>
O=C1C(Cl)=C(Sc2ccccc2)C(=O)c2ccccc21

>  <unit annotation>
µg/mL

>  <value prefix>
=

>  <test result>
6.25

$$$$
>  <compound>
COc1cccc(SC2=C(Cl)C(=O)c3ccccc3C2=O)c1

>  <unit annotation>
µg/mL

>  <value prefix>
=

>  <test result>
25

$$$$
>  <compound>
O=C1C(Sc2cccc3ccccc23)=C(Sc2cccc3ccccc23)C(=O)c2ccccc21

>  <unit annotation>
µg/mL

>  <value prefix>
>

>  <test result>
50

$$$$
>  <compound>
Clc1ccc(COC(Cn2ccnc2)c2ccc(Cl)cc2Cl)c(Cl)c1 (stereo not given) [MICONAZOLE]

>  <unit annotation>
µg/mL

>  <value prefix>
=

>  <test result>
12.5

$$$$
>  <compound>
C[C@@H]1[C@H](O)[C@@H](C)/C=C/C=C/C=C/C=C/C=C/C=C/C=C/[C@H](O[C@@H]2O[C@H](C)[C@@H](O)[C@H](N)[C@@H]2O)C[C@@H]2O[C@](O)(C[C@@H](O)C[C@@H](O)[C@H](O)CC[C@@H](O)C[C@@H](O)CC(=O)O[C@H]1C)C[C@H](O)[C@H]2C(=O)O [AMPHOTERICIN B]

>  <unit annotation>
µg/mL

>  <value prefix>
=

>  <test result>
0.78

$$$$
